Target: Human CYP8B1 (Homo sapiens, UniProt Q9UNU6)
Construct: tissue Xenotech; host or cells: human liver microsomes
Sequence (Q9UNU6 whole entry): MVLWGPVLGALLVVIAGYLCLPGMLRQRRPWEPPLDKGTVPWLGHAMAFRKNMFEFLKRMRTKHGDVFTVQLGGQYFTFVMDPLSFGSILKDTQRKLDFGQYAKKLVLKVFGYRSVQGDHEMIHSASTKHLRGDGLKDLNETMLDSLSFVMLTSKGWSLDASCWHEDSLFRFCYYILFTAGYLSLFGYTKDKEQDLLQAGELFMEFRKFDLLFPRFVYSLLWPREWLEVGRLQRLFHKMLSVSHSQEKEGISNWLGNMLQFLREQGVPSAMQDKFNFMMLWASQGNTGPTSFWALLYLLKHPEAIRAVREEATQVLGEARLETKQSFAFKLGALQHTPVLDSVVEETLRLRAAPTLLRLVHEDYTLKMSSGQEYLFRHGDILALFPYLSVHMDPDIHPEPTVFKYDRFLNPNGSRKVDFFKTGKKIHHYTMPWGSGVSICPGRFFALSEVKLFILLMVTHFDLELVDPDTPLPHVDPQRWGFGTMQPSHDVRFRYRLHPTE
Test: Human Cyp8B1 Liver Microsome Assay
Format: biochemical
Conditions: human liver microsomes; substrate 7α-hydroxy-4-cholesten-3-one, NADPH; 30 min pre-incubation, 45 min reaction; RapidFire MS readout
assay_metric: IC50 (nM)
Answers are plain numbers, in nM.

Observe how each entry below is paired with its result.
structure_smiles: C[C@@H]1CN(c2c(Cl)cnc3nc(C(F)(F)F)ccc23)CC[C@@H]1C(=O)N1CCn2c(nnc2C(F)(F)F)C1
assay_metric: IC50
experimental_result: 1.3
//
structure_smiles: C[C@@H]1CN(c2ccnc3cc(C#N)ccc23)CC[C@@H]1C(=O)N1CCn2c(nnc2C(F)(F)F)C1
assay_metric: IC50
experimental_result: 8.4
//
structure_smiles: C[C@@H]1CN(c2c(C(F)F)cnc3cc(C4CC4)ccc23)CC[C@@H]1C(=O)N1CCn2c(nnc2C(F)(F)F)C1
assay_metric: IC50
experimental_result: 0.61

Now look at this entry.
Name the reported IC50 value associated with the compound C[C@@H]1CN(c2c(F)cnc3cc(C(F)(F)F)ccc23)CC[C@@H]1C(=O)N1CCn2c(nnc2C(F)(F)F)C1 0.25
